Every entry's value here was drawn from patent US20230127046A1.

# TEST SYSTEM: recombinant human G9a protein (Homo sapiens, UniProt Q96KQ7)
# Construct: purchased BPS Bioscience Inc. #51001
# ASSAY PROTOCOL: G9a inhibitory activity test (ALPHA)
# Type: biochemical
# PARTICULARS: read-out: Inhibitory activity (G9a IC50)
Item-by-item account of IC50

CCCCC(NC(=O)c1[nH]c2c(c1C)C(=O)CC(C)(C)C2)C(=O)NCc1ccc(CO)cc1 (stereo not shown)	≥ 200 nM
CCOc1ccc(NC(=O)C(CCC2CC2)NC(=O)c2ccc(Nc3ccncc3)cc2)cn1 (stereo not shown)	< 50 nM
CCCCC(NC(=O)c1[nH]c2c(c1C)C(=O)CC(C)(C)C2)C(=O)Nc1cccc(CN2CCCC2)c1 (stereo not shown)	< 50 nM

Let us move to another entry and its IC50.
**Q:** Provide value of IC50 for this record tested with recombinant human G9a protein (Homo sapiens, UniProt Q96KQ7): CCc1c(C(=O)NC(CCC2CC2)C(=O)Nc2ccc(C)nc2)[nH]c2c1C(=O)CC(C)(C)C2 (stereo not shown)
**A:** 50 to 200 nM

====

Item-by-item account of pIC50
# TEST SYSTEM: recombinant human G9a protein (Homo sapiens, UniProt Q96KQ7)
# Construct: purchased BPS Bioscience Inc. #51001
# ASSAY PROTOCOL: G9a inhibitory activity test (ALPHA)
# Type: biochemical
# PARTICULARS: read-out: Inhibitory activity (G9a IC50)
pIC50: −log10 of the molar value.

Consider the reported pIC50 for these compounds:
Cc1c(C(=O)NC(CCC2CC2)C(=O)N2CCc3c(OC4CCN(C)CC4)cccc32)[nH]c2c1C(=O)CC(C)(C)C2 (centres unmarked)	6.70 to 7.30
Cc1ccncc1NC(=O)C(CCC1CC1)NC(=O)c1[nH]c2c(c1C)C(=O)CC(C)(C)C2 (centres unmarked)	6.70 to 7.30
Cc1c(C(=O)NC(CCC2CC2)c2nc3ccc(CN(C)C)cc3n2C)[nH]c2c1C(=O)CC(C)(C)C2 (centres unmarked)	≤ 6.70
CCCCC(NC(=O)c1ccc(Nc2ccncc2)cc1)C(=O)Nc1ccc(OC)cc1 (centres unmarked)	6.70 to 7.30
CCCCC(NC(=O)c1sc(-c2ccccc2)nc1C)C(=O)Nc1ccc(OC2CCN(C)CC2)nc1 (centres unmarked)	≤ 6.70
Cc1c(C(=O)NC(CCC(C)C)C(=O)Nc2ccccc2)[nH]c2c1C(=O)CC(C)(C)C2 (centres unmarked)	≤ 6.70

**Q:** Request the reported pIC50 associated with "CCc1c(C(=O)N[C@@H](CCC2CC2)C(=O)Nc2ccc(C#N)cc2)[nH]c2c1C(=O)CC(C)(C)C2"
**A:** 6.70 to 7.30

**Q:** Proceed to Cc1c(C(=O)NC(CCC2CC2)C(=O)Nc2ccc(C(F)(F)F)nc2)[nH]c2c1C(=O)CC(C)(C)C2 (centres unmarked)
**A:** 6.70 to 7.30

**Q:** Proceed to "CCCC[C@H](NC(=O)c1[nH]c2c(c1C)C(=O)CC(C)(C)C2)C(=O)N1CCc2c(OCCN3CCCCC3)cccc21"
**A:** ≤ 6.70

**Q:** Proceed to CCCCC(NC(=O)Cc1ccccc1N)C(=O)Nc1ccc(OC2CCN(C)CC2)nc1 (centres unmarked)
**A:** ≤ 6.70

**Q:** Proceed to Cc1ccc(NC(=O)C(CCC2CC2)NC(=O)c2[nH]c3c(c2C(C)C)C(=O)CC(C)(C)C3)cn1 (centres unmarked)
**A:** 6.70 to 7.30

**Q:** Proceed to "CCCC[C@H](NC(=O)c1[nH]c2c(c1C)C(=O)CC1(CCOCC1)C2)C(=O)N[C@@H](C)c1ccccc1"
**A:** ≤ 6.70

**Q:** Proceed to CCCCC(NC(=O)c1[nH]c2c(c1C)C(=O)CC(C)(C)C2)C(=O)N[C@@H](CO)c1ccccc1 (some centres unmarked)
**A:** 6.70 to 7.30

**Q:** Proceed to CCCCC(NC(=O)c1[nH]c2ccc(OC)cc2c1C)C(=O)Nc1ccc(OC2CCN(C)CC2)nc1 (centres unmarked)
**A:** ≤ 6.70

**Q:** Proceed to N#Cc1ccc(NC(=O)C(CCC2CC2)NC(=O)c2ccc(Nc3ccncc3)cc2)cn1 (centres unmarked)
**A:** > 7.30

**Q:** Proceed to "CCCC[C@H](NC(=O)c1[nH]c2c(c1C)C(=O)CC(C)(C)C2)C(=O)N[C@@H](C)c1ccccc1"
**A:** 6.70 to 7.30

**Q:** Proceed to COc1ccc2c(c1)N(C(=O)C(CCC1CC1)NC(=O)c1[nH]c3c(c1C)C(=O)CC(C)(C)C3)CC2 (centres unmarked)
**A:** ≤ 6.70

**Q:** Proceed to COc1ccc(NC(=O)C(CCC2CC2)NC(=O)c2ccc(Nc3ccncc3C)cc2)cn1 (centres unmarked)
**A:** > 7.30

**Q:** Proceed to "Cc1c(C(=O)N[C@H](CCC2CC2)C(=O)N[C@@H](C)c2ccccc2)[nH]c2c1C(=O)CC(C)(C)C2"
**A:** ≤ 6.70

**Q:** Proceed to COc1ccc(NC(=O)C(CCC2CC2)NC(=O)c2ccc(Nc3ccncc3C(F)(F)F)cc2)cn1 (centres unmarked)
**A:** ≤ 6.70

**Q:** Proceed to "CCCC[C@H](NC(=O)c1[nH]c2c(c1C)C(=O)CC(C)(C)C2)c1nc2ccc(OCC3CCNCC3)cc2[nH]1"
**A:** > 7.30

**Q:** Proceed to Cc1c(C(=O)NC(CCC2CC2)C(=O)N2CCc3cc(OCCN(C)C)ccc32)[nH]c2c1C(=O)CC(C)(C)C2 (centres unmarked)
**A:** 6.70 to 7.30

**Q:** Proceed to CCCCC(NC(=O)c1[nH]c2c(c1C)C(=O)CC(C)(C)C2)C(=O)Nc1cccc(CN2CCC(F)CC2)c1 (centres unmarked)
**A:** > 7.30

**Q:** Proceed to Cc1c(C(=O)NC(CCC2CC2)C(=O)Nc2ccc(Cl)nc2)[nH]c2c1C(=O)CC(C)(C)C2 (centres unmarked)
**A:** ≤ 6.70

**Q:** Proceed to CN1CCC(Oc2ccc(NC(=O)C(CCC3CC3)NC(=O)c3ccc(Nc4ccncc4)cc3)cn2)CC1 (centres unmarked)
**A:** > 7.30

**Q:** Proceed to CCCCC(NC(=O)c1[nH]c2c(c1C)C(=O)CC(C)(C)C2)C(=O)NCc1ccc(CN2CCC2)cc1 (centres unmarked)
**A:** > 7.30

**Q:** Proceed to "CCCC[C@H](NC(=O)c1[nH]c2c(c1C)C(=O)CC(C)(C)C2)c1nc2ccc(OCCO)cc2[nH]1"
**A:** ≤ 6.70

**Q:** Proceed to COc1ccc(NC(=O)C(CCC2CC2)NC(=O)c2ccc(Nc3ccncc3)c(C)c2)cn1 (centres unmarked)
**A:** > 7.30

**Q:** Proceed to CCCC[C@H](NC(=O)c1[nH]c2c(c1C)C(=O)CC(C)(C)C2)C(=O)NC(c1ccccc1)C(C)C (some centres unmarked)
**A:** > 7.30

====

# TEST SYSTEM: recombinant human G9a protein (Homo sapiens, UniProt Q96KQ7)
# Construct: purchased BPS Bioscience Inc. #51001
# Sequence (Q96KQ7 785-1210 limits assumed): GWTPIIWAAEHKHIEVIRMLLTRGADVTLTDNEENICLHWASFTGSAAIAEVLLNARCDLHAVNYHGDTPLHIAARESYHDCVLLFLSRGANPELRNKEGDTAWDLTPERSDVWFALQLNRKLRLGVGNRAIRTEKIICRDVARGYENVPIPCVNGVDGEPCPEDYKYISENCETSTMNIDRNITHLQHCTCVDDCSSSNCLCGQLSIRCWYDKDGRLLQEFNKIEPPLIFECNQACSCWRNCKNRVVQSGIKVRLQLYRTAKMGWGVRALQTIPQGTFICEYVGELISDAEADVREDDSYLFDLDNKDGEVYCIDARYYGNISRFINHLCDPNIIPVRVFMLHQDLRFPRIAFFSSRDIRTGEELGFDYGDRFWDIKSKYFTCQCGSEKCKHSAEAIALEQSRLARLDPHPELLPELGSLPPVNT
# ASSAY PROTOCOL: G9a inhibitory activity test (ALPHA)
# Type: biochemical
# PARTICULARS: biotinylated histone H3 peptide (1-21), SAM, read-out: Inhibitory activity (G9a IC50 value)
READOUT LABEL: IC50

Consider the reported IC50 for these compounds:
Cc1ccc(NC(=O)C(CCC2CC2)NC(=O)c2[nH]c3c(c2C)C(=O)CC(C)(C)C3)cn1 (stereo not shown) [Example 1-80]	≥ 200 nM
CCCCC(NC(=O)c1[nH]c2c(c1C)C(=O)CC(C)(C)C2)C(=O)N[C@@H]1CCCc2ccccc21 (stereo partly shown) [Example 1-104]	50 to 200 nM
CCCCC(NC(=O)c1[nH]c2c(c1C)C(=O)CC(C)(C)C2)C(=O)NCc1cccc(OC)c1 (stereo not shown) [Example 1-45]	≥ 200 nM
CCCCC(NC(=O)c1[nH]c2c(c1C)C(=O)CC(C)(C)C2)C(=O)Nc1cc(OC)c(OC)c(OC)c1 (stereo not shown) [Example 1-109]	≥ 200 nM
CCCCC(NC(=O)c1[nH]c2c(c1C)C(=O)CC(C)(C)C2)C(=O)Nc1ccc2[nH]c(C)cc2c1 (stereo not shown) [Example 1-95]	≥ 200 nM

**Q:** Provide value of IC50 for this record tested with recombinant human G9a protein (Homo sapiens, UniProt Q96KQ7): CCCCC(NC(=O)c1[nH]c2c(c1C)C(=O)CC(C)(C)C2)C(=O)Nc1c(C)cccc1OC (stereo not shown) [Example 1-36]
**A:** ≥ 200 nM

**Q:** Proceed to CCc1cc(C#N)ccc1NC(=O)C(CCC1CC1)NC(=O)c1[nH]c2c(c1C)C(=O)CC(C)(C)C2 (stereo not shown) [Example 1-66]
**A:** < 50 nM
